Assign GI50 to each entry below.
tested on: SK-MEL-2; test: NCI tumour cell line growth inhibition, 48 h
Calls of active or inactive are those of the source. No stated cut-off is given here; in the data, active = GI50 up to about 1.1 µM and inactive = higher.

Sure, the documented GI50 for COc1ccc(C(=O)c2sc(Nc3ccc(Cl)cc3)nc2N)cc1 is 17 µM (inactive)

Sure, the documented GI50 for c1ccc(P2c3ccccc3Nc3ccccc32)cc1 is 36 µM (inactive)

Sure, the documented GI50 for COc1cc2c(c(O)c1O)C(=O)C1CCC(=O)N1C2c1cccc2ccccc12 (stereo not drawn) is > 50 µM (inactive)

* * *

Assign GI50 to each entry below.
system: NCI-H460; test: NCI tumour cell line growth inhibition, 48 h
The source made the active and inactive calls. No stated cut-off is given here; in the data, active = GI50 up to about 1.1 µM and inactive = higher.

Sure, the documented GI50 for O=C1OS2(OCc3cccc4cccc2c34)c2ccccc21 (centres undefined) is > 100 µM (inactive)

Sure, the documented GI50 for Cc1nc2c(O)cc3c4c([nH]c3c2nc1C)C(=O)CCC4 is 3.51 µM (inactive)

Sure, the documented GI50 for Cc1cc2c(cc1-c1cc3c(cc1C)C(C(C)C)=C(O)C(=O)/C3=C\NCC1CCCN3CCCCC13)/C(=C/NCC1CCCN3CCCCC13)C(=O)C(O)=C2C(C)C (centres undefined) is 5.14 µM (inactive)

Sure, the documented GI50 for CCOC(=O)[C@@]12NN=N[C@@H]1[C@H]1CO[C@H](c3ccccc3)N1C2=O is 4.44 µM (inactive)

Sure, the documented GI50 for CCCC(Sc1ccccc1)P(=O)(c1ccccc1)c1ccccc1 (centres undefined) is 29.8 µM (inactive)

Sure, the documented GI50 for C=CCC(OCCOCC)c1cc(OCCOCC)ccc1OC (centres undefined) is > 100 µM (inactive)

Sure, the documented GI50 for O=C1C=C(c2ccccc2)O/C1=C/C(=O)c1ccc(Cl)cc1 is 20.2 µM (inactive)

Sure, the documented GI50 for CCOC(=O)c1cc(C2CCN(CC(C)CC)C2=S)c(C(=O)/C=C(/C)N)[nH]1 (centres undefined) is > 50 µM (inactive)

Sure, the documented GI50 for COc1cc(NCCC2CCCCN2)c2ncccc2c1 (centres undefined) is 39.7 µM (inactive)

Sure, the documented GI50 for CCOc1ccc(N(CC(=O)N2CC(=O)Nc3cc(C)c(C)cc32)C(C)=O)cc1 is > 100 µM (inactive)

Sure, the documented GI50 for C1CSC[C@H]2COC[C@@H](CSCCS1)S2 is > 100 µM (inactive)

Sure, the documented GI50 for [Se]=P(c1ccccc1)(c1ccccc1)c1ccc(C(c2ccccc2)=P(c2ccccc2)(c2ccccc2)c2ccccc2)cc1 is 1.28 µM (inactive)

Sure, the documented GI50 for O=C(C#Cc1cnc(O)nc1O)c1ccccc1 is 14.1 µM (inactive)

Sure, the documented GI50 for Cc1cc(NCC2CC/C(=C\C=C\c3ccccc3)C2=O)no1 (centres undefined) is > 100 µM (inactive)

* * *

test system: TK-10; assay: NCI tumour cell line growth inhibition, 48 h
Activity calls are given as the source filed them. Cut-off read from the data, not from the text of the source: active = GI50 up to about 1.1 µM and inactive = higher.
Assign GI50 to each entry below.

Sure, the documented GI50 for Cc1[nH]c(=O)[nH]c(=S)c1C(=O)NC(C)(CO)CO is > 100 µM (inactive)

Sure, the documented GI50 for CCOc1ccc(N(CC(=O)N2CC(=O)Nc3cc(C)c(C)cc32)C(C)=O)cc1 is > 100 µM (inactive)

Sure, the documented GI50 for O=C1NC2(CCCC2)/C(=N\O)C12CCCC2 is > 100 µM (inactive)

Sure, the documented GI50 for COC(=O)C[C@@H]1C(C)(C)[C@@H]2O[C@@]34C[C@@H]2C(=O)[C@]1(C)[C@H]3CC[C@@]1(C)[C@H](c2ccoc2)OC(=O)C[C@]14O is > 100 µM (inactive)

Sure, the documented GI50 for C[N+](C)(C)CC1CCCCCCCCCCC1=O (stereo unspecified) is > 100 µM (inactive)

Sure, the documented GI50 for CCOC(=O)[C@@]12NN=N[C@@H]1[C@H]1CO[C@H](c3ccccc3)N1C2=O is 16.8 µM (inactive)

Sure, the documented GI50 for O=C1C=C(c2ccccc2)O/C1=C/C(=O)c1ccc(Cl)cc1 is 20.2 µM (inactive)

Sure, the documented GI50 for CCN(CC)CCNc1ccc2ncn3c4c(OC)ccc(O)c4c(=O)c1c23 is 33 µM (inactive)

Sure, the documented GI50 for CCO/C(Cc1ccc(Cl)cc1)=N/NC(N)=S is > 100 µM (inactive)

Sure, the documented GI50 for CN(C)C(Cc1c[nH]cn1)C(=O)N1CCCC1C(N)=O (stereo unspecified) is > 100 µM (inactive)

Sure, the documented GI50 for Cc1ccccc1[P+](C)(c1ccccc1C)c1ccccc1C is 8.26 µM (inactive)

Sure, the documented GI50 for COc1ccc2c(c1)CC1COc3cc(OC)ccc3C1O2 (stereo unspecified) is > 100 µM (inactive)

Sure, the documented GI50 for CCCN(CCC)C1=Nc2ccccc2-n2cnnc2C1 is > 100 µM (inactive)

Sure, the documented GI50 for CCCCCC(/C=C/[C@@H]1[C@H]2CC(=O)O[C@H]2C[C@H]1N1CCOCC1)OC1CCCO1 (stereo partly specified) is > 100 µM (inactive)

Sure, the documented GI50 for Cn1c2cc(O)cc(O)c2c(=O)c2c([N+](=O)[O-])cccc21 is > 100 µM (inactive)

Sure, the documented GI50 for C/C(N)=N/OCc1nc(C)no1 is > 100 µM (inactive)

Sure, the documented GI50 for O=C1C/C(=C/c2ccc(/C=C3/CC(=O)N(c4cccc(Br)c4)C3=O)cc2)C(=O)N1c1cccc(Br)c1 is > 100 µM (inactive)

Sure, the documented GI50 for CCCC(Sc1ccccc1)P(=O)(c1ccccc1)c1ccccc1 (stereo unspecified) is 40 µM (inactive)

Sure, the documented GI50 for COc1ccc(C(OCC2OC(n3cnc4c(=O)n(Cc5ccccc5[N+](=O)[O-])nnc43)C(O)C2O)(c2ccccc2)c2ccc(OC)cc2)cc1 (stereo unspecified) is 9.53 µM (inactive)

Sure, the documented GI50 for O=C(/N=C(/Nc1ccccc1)SCCS/C(=N\C(=O)c1ccccc1)Nc1ccccc1)c1ccccc1 is > 100 µM (inactive)

Sure, the documented GI50 for CCN(CC)CCNC(=O)c1cn2c(ccc3sc4ccccc4c(=O)c32)n1 is 14.4 µM (inactive)
